I'd appreciate it if you could supply Cell LXRα efficacy values for the items below.
- Assay Target: Gal4 DNA binding domain fused to the LBD of LXRα in HEK293 cells (Homo sapiens (Human), UniProt Q13133)
- Sequence (Q13133 209-447): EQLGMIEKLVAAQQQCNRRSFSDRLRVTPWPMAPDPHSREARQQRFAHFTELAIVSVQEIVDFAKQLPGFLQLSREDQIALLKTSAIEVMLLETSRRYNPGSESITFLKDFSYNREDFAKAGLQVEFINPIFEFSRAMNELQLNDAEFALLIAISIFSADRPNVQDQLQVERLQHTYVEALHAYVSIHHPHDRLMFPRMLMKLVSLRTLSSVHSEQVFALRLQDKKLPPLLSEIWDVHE
- Protocol Summary: LXR luciferase transcriptional reporter gene assay, agonist mode, LXRα
- Type: cell-based

Examples with their reported Cell LXRα efficacy follow.
1. CC(C)[C@@H]1CN(c2ccc(CN)c(S(C)(=O)=O)c2)CCN1c1nccc(C(F)(F)F)n1 = 4307 (42) %
2. CC(C)[C@@H]1CN(c2ccc(F)c(S(C)(=O)=O)c2)CCN1c1nc(C(F)(F)F)c(C(C)(C)O)o1 = 4655 (96) %
3. CC(C)[C@@H]1CN(c2cccc(S(C)(=O)=O)c2)CCN1c1ncc(OC(F)F)cn1 = 3658 (71) %
4. CC(C)[C@@H]1CN(c2ccc(F)c(S(C)(=O)=O)c2)CCN1c1ncc([C@@H](C)O)c(C(F)(F)F)n1 = 769 (43) %
5. CC(C)[C@@H]1CN(c2cccc(S(C)(=O)=O)c2)CCN1C(=O)OC(C)(C)C = 2778 (44) %

Fill in Cell LXRα efficacy for each of the 4 compounds listed.
1. CCOC(=O)c1cnc(N2CCN(c3ccc(-c4nc(C)no4)c(S(C)(=O)=O)c3)C[C@H]2C(C)C)nc1C(F)(F)F
2. CC(C)[C@@H]1CN(c2ccc(F)c(S(C)(=O)=O)c2)CCN1c1ncc(C#N)c(C(F)(F)F)n1
3. CC(C)[C@@H]1CN(c2ccc(F)c(S(C)(=O)=O)c2)CCN1c1ncc(Cc2ccc(C(=O)O)cc2)c(C(F)(F)F)n1
4. COC(=O)[C@@H]1CN(c2cccc(S(C)(=O)=O)c2)CCN1C(=O)OC(C)(C)C

Data returned:
1. 15144 (26) %
2. 549 (86) %
3. 4667 (6) %
4. 14195 (49) %

The following compounds each have a reported value; give each one's Cell LXRα efficacy.
1. CS(=O)(=O)c1cccc(N2CCN(C[C@H]3C[C@@H]4[C@H](C3)C4(F)F)[C@@H](c3ccccc3)C2)c1
2. CC(C)[C@@H]1CN(c2cccc(S(C)(=O)=O)c2)CCN1c1ccc(C2CC2)nn1
3. CC(C)[C@@H]1CN(c2ccc(F)c(S(C)(=O)=O)c2)CCN1c1nc2c(F)cccc2s1

Data returned:
1: 1817 (38) %; 2: 4921 (84) %; 3: 371 (95) %

Okay, here is my list. What is Cell LXRα efficacy for each of these?
1. CC(C)COC(=O)N1CCN(c2cccc(S(C)(=O)=O)c2)CC1c1ccccc1 (stereo not drawn)
2. CC(C)[C@@H]1CN(c2ccc(F)c(S(C)(=O)=O)c2)CCN1c1nc2ccc(F)cc2s1
3. CC(C)[C@@H]1CN(c2cc(F)c(CO)c(S(C)(=O)=O)c2)CCN1c1ncc(C(N)=O)c(C(F)(F)F)n1
4. CC(C)c1ccc(CN2CCN(c3cccc(S(C)(=O)=O)c3)C[C@@H]2c2ccccc2)cc1
5. CC(C)[C@H]1CN(c2cccc(S(C)(=O)=O)c2)CCN1CC1CCC(C(F)(F)F)N(C)C1 (stereo partly drawn)
6. CC(C)[C@@H]1CN(c2ccc(CO)c(S(C)(=O)=O)c2)CCN1c1ccnc(C(N)=O)c1
7. CC(C)[C@H]1CN(c2cccc(S(C)(=O)=O)c2)CCN1CC1CCCOC1 (stereo partly drawn)

Data returned:
1: 3049 (6) %; 2: 439 (68) %; 3: 913 (9) %; 4: 3200 (22) %; 5: 137 (95) %; 6: 9385 (44) %; 7: 7863 (36) %
